Property: Selectivity Kv1.1/Kv1.3; scope: individual substances
Molecular target: Kv1.1 (Homo sapiens)
Construct: expressed in transfected cells
Test: Patch clamp assay (QPatch), Kv1.1
Format: cell-based
Details: ratio of IC50 Kv1.1/Kv1.3

Ac-LRC(1)SASVEC(2)KQKC(3)LKAIGSIFGKC(1)[Nle]NKKC(2)KC(3)YPR-NH2 [Peptide 114]: >8700

For record H-C(1)SASVEC(2)KQKC(3)LKAIGSIFGKC(1)[Nle]NKKC(2)KC(3)YPR-NH2 [Peptide 108] the listed Selectivity Kv1.1/Kv1.3 is >7000

For record H-N[Nle]D[Nle]RC(1)SASVEC(2)KQKC(3)KAIGSIFGKC(1)[Nle]NKKC(2)KC(3)YPR-NH2 [Peptide 50] the listed Selectivity Kv1.1/Kv1.3 is >2200

For record H-P[Nle]E[Nle]RC(1)[2,4-Diaminobutanoyl]ASVEC(2)KQKC(3)LAAIGSIFGKC(1)[Nle]NKKC(2)KC(3)YPR-OH [Peptide 84] the listed Selectivity Kv1.1/Kv1.3 is >100000

For record H-N[Nle]D[Nle]RC(1)SASVEC(2)KQSC(3)LKAIGSIFGKC(1)[Nle]NKKC(2)KC(3)YPR-NH2 [Peptide 49] the listed Selectivity Kv1.1/Kv1.3 is >8200

* * *

Target: Kv1.3 (Homo sapiens, UniProt P22001)
Construct: expressed in transfected cells
Sequence (P22001 whole entry): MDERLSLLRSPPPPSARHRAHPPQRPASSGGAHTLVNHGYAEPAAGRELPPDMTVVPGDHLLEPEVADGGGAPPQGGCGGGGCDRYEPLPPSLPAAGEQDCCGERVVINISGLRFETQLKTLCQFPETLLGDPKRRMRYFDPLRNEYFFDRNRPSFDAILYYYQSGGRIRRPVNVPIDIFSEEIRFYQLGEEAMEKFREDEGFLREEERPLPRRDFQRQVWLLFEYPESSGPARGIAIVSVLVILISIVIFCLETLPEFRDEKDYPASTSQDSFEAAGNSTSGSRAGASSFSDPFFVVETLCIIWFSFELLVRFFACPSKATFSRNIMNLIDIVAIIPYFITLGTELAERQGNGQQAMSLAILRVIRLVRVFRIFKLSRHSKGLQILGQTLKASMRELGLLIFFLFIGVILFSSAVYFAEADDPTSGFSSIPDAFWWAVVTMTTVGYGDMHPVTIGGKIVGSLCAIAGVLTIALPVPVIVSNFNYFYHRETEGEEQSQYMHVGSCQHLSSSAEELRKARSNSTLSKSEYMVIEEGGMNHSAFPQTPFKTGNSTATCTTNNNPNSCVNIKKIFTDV
Experiment: Patch clamp assay (QPatch), Kv1.3
Format: cell-based
Conditions: CHO cells stably expressing human Kv1.3, read-out: Potency IC50, Kv1.3
Property: IC50; scope: individual substances
Only the number, expressed in nM, is required.

Ac-SKC(1)SASVEC(2)KQKC(3)LKAIGSIFGKC(1)[Nle]NKKC(2)KC(3)YPR-NH2 [Peptide 113]: 1

For record H-NMDMRC(1)SASVEC(2)KQKC(3)KKAIGSIFGKC(1)MNKKC(2)KC(3)YPR-NH2 [Peptide 20] the listed IC50 is 0.22

For record H-NIDMRC(1)SASVEC(2)KQKC(3)LKAIGSIFGKC(1)MNKKC(2)KC(3)YPR-OH [Peptide 9] the listed IC50 is 0.44

For record H-N[Nle]D[Nle]RC(1)SASVEC(2)KQSC(3)LKAIGSIFGKC(1)[Nle]NKKC(2)KC(3)YPR-NH2 [Peptide 49] the listed IC50 is 0.37

* * *

Property: T1/2; scope: individual substances
Test: Example 6: Pharmacokinetic characterisation after s.c. administration
Assay type: in vivo, rat (Sprague Dawley or Wistar)
Conditions: rat, 70 nmol/kg, plasma terminal elimination half-life
Only the number, expressed in min, is required.

Record excerpt, results attached:
H-P[Nle]E[Nle]RC(1)SASVEC(2)KQKC(3)LAAIGSIFGKC(1)[Nle]NKKC(2)KC(3)YPR-OH [Peptide 100]: 62.4
H-MDMRC(1)SASVEC(2)KQKC(3)LKAIGSIFGKC(1)MNKKC(2)KC(3)YPR-OH [Peptide 6]: 55.8
H-P[Nle]E[Nle]RC(1)SASVEC(2)AQKC(3)LAAIGSIFGKC(1)[Nle]NKKC(2)KC(3)YPR-OH [Peptide 107]: 81.6
H-NMDMRC(1)SASVEC(2)KQKC(3)LYAIGSIFGKC(1)MNKKC(2)KC(3)YPR-NH2 [Peptide 54]: 52.2
H-NMDMRC(1)SASVEC(2)AQKC(3)LKAIGSIFGKC(1)MNKKC(2)KC(3)YPR-NH2 [Peptide 31]: 44.4

Here's the next entry for you.
For record H-PIE[Nle]RC(1)SASVEC(2)KQKC(3)LAAIGSIFGKC(1)[Nle]NKKC(2)KC(3)YPR-OH [Peptide 105] the listed T1/2 is 54.6

* * *

Biological target: Kv1.2 (Homo sapiens, UniProt P16389)
Construct: expressed in transfected cells
Sequence (P16389 whole entry): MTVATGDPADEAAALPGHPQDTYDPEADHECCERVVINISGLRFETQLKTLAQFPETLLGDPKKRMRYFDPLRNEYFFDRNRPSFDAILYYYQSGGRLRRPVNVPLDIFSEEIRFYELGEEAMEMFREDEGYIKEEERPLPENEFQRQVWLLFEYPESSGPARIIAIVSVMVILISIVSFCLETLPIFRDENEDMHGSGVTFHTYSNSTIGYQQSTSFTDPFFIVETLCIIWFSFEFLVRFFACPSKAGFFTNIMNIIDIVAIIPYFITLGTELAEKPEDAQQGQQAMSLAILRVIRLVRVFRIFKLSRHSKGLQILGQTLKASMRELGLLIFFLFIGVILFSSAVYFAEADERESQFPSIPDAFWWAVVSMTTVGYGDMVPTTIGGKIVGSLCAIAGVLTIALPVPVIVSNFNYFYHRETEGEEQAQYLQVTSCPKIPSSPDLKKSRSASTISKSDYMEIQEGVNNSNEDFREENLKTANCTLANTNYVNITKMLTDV
Test: Patch clamp assay (QPatch), Kv1.2
Assay type: cell-based
Conditions: QPatch; CHO cells stably expressing human Kv1.2; read-out: Potency IC50, Kv1.2
Property: pIC50; scope: individual substances
Please express pIC50 as -log10 of the molar concentration.

H-P[Nle]E[Nle]RC(1)SASVEC(2)KQKC(3)LAAIGSIFGKC(1)[Nle]NKKC(2)KC(3)YPR-OH [Peptide 100]: 5.95

For record H-NMDMRC(1)SASVEC(2)KQKC(3)KKAIGSIFGKC(1)MNKKC(2)KC(3)YPR-NH2 [Peptide 20] the listed pIC50 is 7.35

* * *

Target: Kv1.1 (Homo sapiens, UniProt Q09470)
Construct: expressed in transfected cells
Sequence (Q09470 whole entry): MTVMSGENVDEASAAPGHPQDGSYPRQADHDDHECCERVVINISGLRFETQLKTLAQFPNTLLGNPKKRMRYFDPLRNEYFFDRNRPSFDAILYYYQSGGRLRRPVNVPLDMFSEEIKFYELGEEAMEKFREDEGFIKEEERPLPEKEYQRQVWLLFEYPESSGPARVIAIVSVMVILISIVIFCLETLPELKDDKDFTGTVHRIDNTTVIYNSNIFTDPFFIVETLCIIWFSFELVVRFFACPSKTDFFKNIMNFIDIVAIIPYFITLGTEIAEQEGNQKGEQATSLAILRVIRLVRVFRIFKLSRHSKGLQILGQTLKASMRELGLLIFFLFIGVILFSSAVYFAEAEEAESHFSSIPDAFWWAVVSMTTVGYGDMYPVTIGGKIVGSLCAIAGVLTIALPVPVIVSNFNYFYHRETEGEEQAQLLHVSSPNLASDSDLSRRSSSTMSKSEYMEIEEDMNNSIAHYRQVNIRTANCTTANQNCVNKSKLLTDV
Assay: Patch clamp assay (QPatch), Kv1.1
Type: cell-based
Conditions: QPatch; CHO cells stably expressing human Kv1.1; read-out: Potency IC50, Kv1.1
Measured Attribute: IC50

Record excerpt, results attached:
H-NMDMRC(1)SASVEC(2)KQKC(3)LKAIGSIFGKC(1)MNKKC(2)HC(3)YPR-NH2 [Peptide 38]: > 3000 nM
H-QMDMRC(1)SASVEC(2)KQKC(3)LKAIGRGFGKC(1)MNKKC(2)KC(3)YPR-OH [Peptide 2]: > 3000 nM
H-NMDMRC(1)SASVEC(2)KQKC(3)LKAIGSKFGKC(1)MNKKC(2)KC(3)YPR-NH2 [Peptide 35]: > 3000 nM
H-RC(1)SASVEC(2)KQKC(3)LKAIGSIFGKC(1)[Nle]NKKC(2)KC(3)YPR-NH2 [Peptide 111]: > 3000 nM
H-S[Nle]DERC(1)SASVEC(2)KQKC(3)LKAIGSIFGKC(1)MNKKC(2)KC(3)YPR-NH2 [Peptide 78]: > 3000 nM

Here's the next entry for you.
Record H-NMDMRC(1)SASVEC(2)KQKC(3)LKAIGSIFGKC(1)[Nle]NKKC(2)KC(3)YPR-NH2 [Peptide 17] has Kv1.1 (Homo sapiens, UniProt Q09470) IC50 equal to > 3000 nM

* * *

Molecular target: Kv1.6 (Homo sapiens)
Construct: expressed in transfected cells
Experiment: Patch clamp assay (QPatch), Kv1.6
Format: cell-based
Conditions: ratio of IC50 Kv1.6/Kv1.3
Property: Selectivity Kv1.6/Kv1.3; scope: individual substances

Record excerpt, results attached:
H-NMDMRC(1)SASVEC(2)KQKC(3)LKAIESIFGKC(1)MNKKC(2)KC(3)YPR-NH2 [Peptide 23]: >10200
H-NMDMRC(1)SASVEC(2)KQKC(3)LKAIGSIFGKC(1)MNKKC(2)KC(3)YPR-OH [Peptide 3]: >11300
H-PIE[Nle]RC(1)SASVEC(2)KQKC(3)LAAIGSIFGKC(1)[Nle]NKKC(2)KC(3)YPR-OH [Peptide 105]: >8600
H-NMDMRC(1)SASVEC(2)KQKC(3)LKAIGSKFGKC(1)MNKKC(2)KC(3)YPR-NH2 [Peptide 35]: 490
H-N[Nle]D[Nle]RC(1)SHSVEC(2)KQKC(3)LKAIGSIFGKC(1)[Nle]NKKC(2)KC(3)YPR-NH2 [Peptide 48]: 1134
H-N[Nle]D[Nle]RC(1)RASVEC(2)KQKC(3)LKAIGSIFGKC(1)[Nle]NKKC(2)KC(3)YPR-NH2 [Peptide 43]: 1954
H-N[Nle]D[Nle]RC(1)SASVEC(2)KQKC(3)LKAIGSPFGKC(1)[Nle]NKKC(2)KC(3)YPR-NH2 [Peptide 63]: 9102
H-AAAISCVGSPECPPKCRAQGCKNGKCMNRKCKCYYC-NH2 [Vm24, reference compound]: 139

Here's the next entry for you.
For record H-RC(1)SASVEC(2)KQKC(3)LKAIGSIFGKC(1)[Nle]NKKC(2)KC(3)YPR-NH2 [Peptide 111] the listed Selectivity Kv1.6/Kv1.3 is 3290

* * *

Target: Kv1.6 (Homo sapiens, UniProt P17658)
Construct: expressed in transfected cells
Sequence (P17658 whole entry): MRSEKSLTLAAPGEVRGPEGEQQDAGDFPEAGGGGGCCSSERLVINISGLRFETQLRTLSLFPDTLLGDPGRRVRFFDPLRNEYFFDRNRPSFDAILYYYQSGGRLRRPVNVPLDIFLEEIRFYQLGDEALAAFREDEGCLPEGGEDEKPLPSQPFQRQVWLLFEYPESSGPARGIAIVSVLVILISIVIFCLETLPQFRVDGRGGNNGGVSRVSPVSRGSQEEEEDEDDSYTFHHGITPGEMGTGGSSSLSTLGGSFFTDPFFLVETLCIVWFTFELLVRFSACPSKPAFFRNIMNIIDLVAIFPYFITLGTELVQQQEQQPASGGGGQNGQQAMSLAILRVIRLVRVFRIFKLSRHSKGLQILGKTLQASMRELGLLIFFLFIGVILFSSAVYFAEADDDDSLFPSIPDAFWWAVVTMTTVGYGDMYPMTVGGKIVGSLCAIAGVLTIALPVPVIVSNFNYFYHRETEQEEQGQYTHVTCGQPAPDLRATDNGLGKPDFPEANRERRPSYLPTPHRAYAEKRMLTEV
Assay: Patch clamp assay (QPatch), Kv1.6
Assay type: cell-based
Settings: ratio of IC50 Kv1.6/Kv1.3
Property: Selectivity Kv1.6/Kv1.3; scope: individual substances

H-S[Nle]D[Nle]RC(1)SASVEC(2)GQKC(3)LKAIGSIFGKC(1)MNKKC(2)KC(3)YPR-NH2 [Peptide 73]: >27700

Record H-P[Nle]E[Nle]RC(1)SASVEC(2)KQKC(3)LAAIGSIFGKC(1)[Nle]NKKC(2)KC(3)YPR-OH [Peptide 100] has Kv1.6 (Homo sapiens, UniProt P17658) Selectivity Kv1.6/Kv1.3 equal to >9100

Record H-C(1)SASVEC(2)KQKC(3)LKAIGSIFGKC(1)MNKKC(2)KC(3)YPR-OH [Peptide 124] has Kv1.6 (Homo sapiens, UniProt P17658) Selectivity Kv1.6/Kv1.3 equal to >1400

Record H-P[Nle]E[Nle]RC(1)SASVEC(2)AQKC(3)LAAIGSIFGKC(1)[Nle]NKKC(2)KC(3)YPR-OH [Peptide 107] has Kv1.6 (Homo sapiens, UniProt P17658) Selectivity Kv1.6/Kv1.3 equal to >5500
